# TESTED ON: T1, monkey GPC3-His protein (monkey)
# T1 construct: Bought protein; also called monkey GPC3 protein
# TEST DETAILS: ELISA, monkey GPC3-His coated; antibody 1.39 nM
PROPERTY LABEL: OD450 nm
Answer using only a numeral; do not append any unit.

In the examples that follow, each entry is paired with its recorded OD450 nm.
INSERT INTO results (binder, property_label, result_value) VALUES
  ('hAb007LH1L1d (antibody, human IgG1, V domains shown, Humanized F3.81.19, H1+L1d) VH: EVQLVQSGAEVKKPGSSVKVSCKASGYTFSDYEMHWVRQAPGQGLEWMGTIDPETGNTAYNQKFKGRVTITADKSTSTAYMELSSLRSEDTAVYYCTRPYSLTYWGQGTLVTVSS VL: DIVMTQTPLSLPVTPGEPASISCRSSQSFVHSNSDTYLQWYLQKPGQSPQLLIYKVSNRFSGVPDRFSGSGSGTDFTLKISRVEAEDVGVYYCFQGSHVPYTFGQGTKLEIK', 'OD450 nm', 1.2),
  ('hAb007LH1L1e (antibody, human IgG1, V domains shown, Humanized F3.81.19, H1+L1e) VH: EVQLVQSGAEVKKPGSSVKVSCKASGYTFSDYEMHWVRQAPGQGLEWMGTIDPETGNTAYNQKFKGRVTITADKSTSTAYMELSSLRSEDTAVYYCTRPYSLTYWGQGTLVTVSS VL: DIVMTQTPLSLPVTPGEPASISCRSSQSFVHSNVDTYLQWYLQKPGQSPQLLIYKVSNRFSGVPDRFSGSGSGTDFTLKISRVEAEDVGVYYCFQGSHVPYTFGQGTKLEIK', 'OD450 nm', 0.848);

Please find the next binder below.
Q. # OD450 nm lookup, item hAb006LH3L1d (antibody, human IgG1, V domains shown, Humanized F3.38.7, H3+L1d) VH: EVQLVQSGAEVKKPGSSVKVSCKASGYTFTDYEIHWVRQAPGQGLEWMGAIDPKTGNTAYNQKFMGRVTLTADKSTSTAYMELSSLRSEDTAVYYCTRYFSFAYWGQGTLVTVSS VL: DIVMTQTPLSLPVTPGEPASISCRSSQTFVHSNSNTYLQWYLQKPGQSPQLLIYKVSNRFSGVPDRFSGSGSGTDFTLKISRVEAEDVGVYYCFQGSHVPYTFGQGTKLEIK
A. 1.28
